- System: hGLP-1R (Homo sapiens, UniProt P43220)
- Sequence (P43220 24-463): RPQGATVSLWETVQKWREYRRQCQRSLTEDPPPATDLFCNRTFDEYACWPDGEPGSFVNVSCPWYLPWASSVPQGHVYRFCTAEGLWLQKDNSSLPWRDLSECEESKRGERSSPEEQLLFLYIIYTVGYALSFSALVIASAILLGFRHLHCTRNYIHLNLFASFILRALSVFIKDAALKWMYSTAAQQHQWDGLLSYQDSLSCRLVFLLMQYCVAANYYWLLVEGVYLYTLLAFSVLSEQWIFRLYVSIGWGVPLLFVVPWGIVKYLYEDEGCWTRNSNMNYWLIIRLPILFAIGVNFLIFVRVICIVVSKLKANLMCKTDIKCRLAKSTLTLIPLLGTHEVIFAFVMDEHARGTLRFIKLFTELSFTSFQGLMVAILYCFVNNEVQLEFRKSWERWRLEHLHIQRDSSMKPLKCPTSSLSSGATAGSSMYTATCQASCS
- Assay Procedure: cell-based or functional assay
Starred links: 1 amine or outer side, 2 acyl side, 3 side chain; linkers in the order of their positions; H or OH if unused. Non-standard residues stand in square brackets, D forms with d. Groups on a side chain read outwards from the residue. No end group written: not given here. *: point of attachment. C20 diacid = O=C(O)CCCCCCCCCCCCCCCCCCC(=O)*; γGlu = O=C(O)[C@H](CCC(=O)[*:2])N[*:1]; αMeL = CC(C)C[C@](C)(N)C(=O)O; AEEA = NCCOCCOCC(=O)O; Aib = CC(C)(N)C(=O)O
// reported Relative cAMP EC50 per item
Observation Type: Relative cAMP EC50 (nM)

Binder	Observation Type	Val
Y[Aib]QGTFTSDYSI[αMeL]LDKK([AEEA-γGlu-C20 diacid])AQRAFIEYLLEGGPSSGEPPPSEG-NH2 (not fully specified) [Example 289]	Relative cAMP EC50	0.449
YXQGTXTSDXXIXLDXKAQXEFIEXLVEGGPSSGAPPPESE (not fully specified; acylated lysine AEEA-γGlu-C18 diacid; non-natural residues; C-terminal amide; synthetic construct; SITE 2: note = 2-Aminoisobutyric Acid; SITE 6: note = alpha-methyl-2-fluoro-L-phenylalanine; SITE 10: note = 3-(4-Pyridyl)-L-alanine; SITE 11: note = alpha-methyl-L-serine; SITE 13: note = alpha-methyl-leucine; SITE 16: note = L-ornithine; SITE 17: note = Lysine is chemically mo) [Example 1156]	Relative cAMP EC50	0.444
YXQGTFTSDFSRXLDKKAQXAFIEYLLEXGPSSGAPPPSGS (synthetic construct; SITE 2: note = 2-Aminoisobutyric Acid; SITE 13: note = alpha-methyl-leucine; SITE 17: note = Lysine is chemically modified through conjugation of the epsilon-amino group of the Lysine side chain with (2-[2-(2-Amino-ethoxy)-ethoxy]-acetyl)-(gamma-Glu)-CO-(CH2) 16-CO2H; SITE 20: n) [Example 79]	Relative cAMP EC50	1.8
Y[Aib]QGTFTSDYSI[αMeL]LDKQAAKQFVEWLIA[Aib]GPSSGEPPPGTG-NH2 (not fully specified (residue 20)) [Example 336]	Relative cAMP EC50	0.921
YXQGTXTSDYSILLDXKAQXAFIEYLEEGGPSSGAPPPS (synthetic construct; SITE 2: note = 2-Aminoisobutyric Acid; SITE 6: note = alpha-methyl-2-fluoro-L-phenylalanine; SITE 16: note = L-ornithine; SITE 17: note = Lysine is chemically modified through conjugation of the epsilon-amino group of the Lysine side chain with (gamma-Glu)2-CO-(CH2)16-CO2H; SITE) [Example 414]	Relative cAMP EC50	0.176
